Hello, the source for this data is ChEMBL document CHEMBL4387750, in case you need it.

Target: UniProt:P29990
Where a SMILES comes first, the peptide text is derived from it. [ ]: non-standard residue; d: D form. The star is where a group is joined. Phg = N[C@H](C(=O)O)c1ccccc1; Bz = O=C(c1ccccc1)*
Binary call on IC50 with cut-off 2 µM: strictly below means true, and equality or higher means false.

N=C(N)NCCC[C@H](NC(=O)C(=O)c1ccccc1)C(=O)N[C@@H](CCCCN)C(=O)N[C@@H](C(N)=O)c1ccccc1
false

Prompt: Here's an entry: CC(NC(=O)[C@H](CCCCN)NC(=O)[C@H](CCCNC(=N)N)NC(=O)c1ccccc1)(C(N)=O)c1ccccc1 (stereo not given in full) . Is its IC50 below 2 µM?
Response: true

Prompt: Same thing, different compound: `CN(C(=O)c1ccccc1)[C@@H](CCCNC(=N)N)C(=O)N[C@@H](CCCCN)C(=O)N[C@@H](C(N)=O)c1ccccc1`
Response: false

Prompt: What about N=C(N)NCCC[C@H](NC(=O)c1ccccc1)C(=O)N[C@@H](CCCCN)C(=O)N[C@H](C(N)=O)c1ccccc1 (Bz-Arg-Lys-[Phg]-NH2) ?
Response: false

Prompt: Another: `CN(C(=O)c1ccccc1)[C@@H](CCCNC(=N)N)C(=O)N[C@@H](CCCCN)C(=O)N[C@@](C)(C(N)=O)c1ccccc1`
Response: false

Prompt: Repeat with `CN(C(=O)c1ccccc1)[C@@H](CCCNC(=N)N)C(=O)N[C@@H](CCCCN)C(=O)N[C@@H](C(N)=O)c1ccc(OCc2ccccc2)cc1`
Response: true

Prompt: Repeat for the following compound: `C[C@](NC(=O)[C@H](CCCCN)NC(=O)[C@H](CCCNC(=N)N)NC(=O)c1ccccc1)(C(N)=O)c1ccccc1`
Response: true

* * *

Molecular target: Trypsin (Homo sapiens, UniProt P07477+P07478+P35030)
Experiment: Inhibition of trypsin (unknown origin) at 50 uM preincubated with protein for 15 mins followed by boc-Val-Pro-Arg-AMC substrate addition and measured by continuous fluorometric analysis relative to control
Format: protein assay
Where a SMILES comes first, the peptide text is derived from it. [ ]: non-standard residue; d: D form. The star is where a group is joined. dPhg = N[C@@H](C(=O)O)c1ccccc1; Bz = O=C(c1ccccc1)*
Quick reference for inhibition among some compounds
// units = %; emit number, no label

N=C(N)NCCC[C@H](NC(=O)c1ccccc1)C(=O)N[C@@H](CCCCN)C(=O)N[C@@H](C(N)=O)c1ccccc1 (Bz-Arg-Lys-[dPhg]-NH2)
12.5
N=C(N)NCCC[C@H](NC(=O)c1ccccc1)C(=O)N[C@@H](CCCCN)C(=O)N[C@@H](C(N)=O)c1ccc(OCc2ccccc2)cc1
18.4

// next entry
Prompt: Form entry - test system: Trypsin (Homo sapiens, UniProt P07477+P07478+P35030); read-out: inhibition; compound: `N=C(N)NCCC[C@H](NC(=O)C(=O)c1ccccc1)C(=O)N[C@@H](CCCCN)C(=O)N[C@@H](C(N)=O)c1ccccc1`
Response: 33.5

* * *

Molecular target: Prothrombin (Homo sapiens) (UniProt P00734)
Test: Inhibition of human thrombin at 25 uM preincubated with protein for 15 mins followed by boc-Val-Pro-Arg-AMC substrate addition and measured after 10 mins by continuous fluorometric analysis relative to control
Endpoint Name: inhibition

Consider the following illustrative entries.
CN(C(=O)c1ccccc1)[C@@H](CCCNC(=N)N)C(=O)N[C@@H](CCCCN)C(=O)N[C@@H](C(N)=O)c1ccc(OCc2ccccc2)cc1
5.5%
N=C(N)NCCC[C@H](NC(=O)c1ccccc1)C(=O)N[C@@H](CCCCN)C(=O)NC(C(N)=O)(c1ccccc1)c1ccccc1
< 5%
C[C@](NC(=O)[C@H](CCCCN)NC(=O)[C@H](CCCNC(=N)N)NC(=O)c1ccccc1)(C(N)=O)c1ccccc1
6.5%
CN(C(=O)[C@H](CCCCN)NC(=O)[C@H](CCCNC(=N)N)NC(=O)c1ccccc1)[C@@H](C(N)=O)c1ccccc1
< 5%
N=C(N)NCCC[C@H](NC(=O)c1ccccc1)C(=O)N[C@@H](CCCCN)CC(=O)N(CC(N)=O)c1ccccc1
< 5%

Prompt: For the compound shown here, `N=C(N)NCCC[C@H](NC(=O)c1ccccc1)C(=O)N[C@@H](CCCCN)C(=O)N(CC(N)=O)c1ccccc1` , give the reported inhibition.
Response: < 5%

Prompt: Cool, now `N=C(N)NCCC[C@H](NC(=O)c1ccccc1)C(=O)N[C@@H](CCCCN)C(=O)N[C@@H](CC(N)=O)c1ccccc1`
Response: < 5%

* * *

Below: a set of entries, each annotated with reported inhibition.
Molecular target: Genome polyprotein (West Nile virus)
Assay: Inhibition of West Nile virus NS2B-NS3 protease preincubated with protein for 15 mins followed by Abz-Gly-Leu-Lys-Arg-Gly-Gly-3-(NO2)-Tyr substrate addition and measured by continuous fluorometric analysis relative to control
Design: concentration or dose not given beside the values
Return type: number; implicit unit %.

Prompt: For the compound shown here, `N=C(N)NCCC[C@H](NC(=O)c1ccccc1)C(=O)N[C@@H](CCCCN)C(=O)N(CC(N)=O)c1ccccc1` , give the reported inhibition.
Response: 19.8

Prompt: Can you handle `N=C(N)NCCC[C@H](N[C@@H](c1ccccc1)C(F)(F)F)C(=O)N[C@@H](CCCCN)C(=O)N[C@@H](C(N)=O)c1ccccc1` next?
Response: 6

Prompt: Also `N=C(N)NCCC[C@H](NC(=O)c1ccccc1)C(=O)N(CCCCN)CC(=O)N[C@@H](C(N)=O)c1ccccc1` , if possible.
Response: 18.4

Prompt: Try the compound `N=C(N)NCCC[C@H](N[C@H](c1ccccc1)C(F)(F)F)C(=O)N[C@@H](CCCCN)C(=O)N[C@@H](C(N)=O)c1ccccc1`
Response: 24.6

Prompt: Also need `C[C@@](NC(=O)[C@H](CCCCN)NC(=O)[C@H](CCCNC(=N)N)NC(=O)c1ccccc1)(C(N)=O)c1ccccc1` , thanks.
Response: 47.4

Prompt: Could you do the same for `N=C(N)NCCC[C@H](NC(=O)c1ccccc1)C(=O)N[C@@H](CCCCN)C(=O)NC(C(N)=O)(c1ccccc1)c1ccccc1` , please?
Response: 33.3

Prompt: Now this one: `CN(C(=O)c1ccccc1)[C@@H](CCCNC(=N)N)C(=O)N[C@@H](CCCCN)C(=O)N[C@@H](C(N)=O)c1ccccc1`
Response: 48.4

Prompt: Another: `N=C(N)NCCC[C@H](NC(=O)c1ccccc1)C(=O)N[C@@H](CCCCN)C(=O)N[C@@H](CC(N)=O)c1ccccc1`
Response: 12.6

Prompt: Also, `C[C@](NC(=O)[C@H](CCCCN)NC(=O)[C@H](CCCNC(=N)N)NC(=O)c1ccccc1)(C(N)=O)c1ccccc1` please.
Response: 82.5

Prompt: Now consider `CN(C(=O)c1ccccc1)[C@@H](CCCNC(=N)N)C(=O)N[C@@H](CCCCN)C(=O)N[C@@H](C(N)=O)c1ccc(OCc2ccccc2)cc1` and answer again.
Response: 92

Prompt: Then CC(NC(=O)[C@H](CCCCN)NC(=O)[C@H](CCCNC(=N)N)NC(=O)c1ccccc1)(C(N)=O)c1ccccc1 (stereo partly drawn) ?
Response: 59.8

Prompt: Please answer likewise for `N=C(N)NCCC[C@H](NC(=O)C(=O)c1ccccc1)C(=O)N[C@@H](CCCCN)C(=O)N[C@@H](C(N)=O)c1ccccc1`
Response: 43.2

* * *

Assay: Metabolic stability assessed as alpha-chymotrypsin (unknown origin)-mediated drug degradation by measuring half life in pH 7.4 phosphate buffer incubated up to 60 mins at 37 degC by HPLC and UV analysis
Format: ADME
Conditions: human, alpha-chymotrypsin in phosphate buffer, pH 7.4
Where a SMILES comes first, the peptide text is derived from it. [ ]: non-standard residue; d: D form. The star is where a group is joined. dPhg = N[C@@H](C(=O)O)c1ccccc1; Bz = O=C(c1ccccc1)*
Endpoint Name: half-life (min)
Form entry: value (min) — number only.

Prompt: Query: half-life; subject: N=C(N)NCCC[C@H](NC(=O)c1ccccc1)C(=O)N[C@@H](CCCCN)C(=O)N[C@@H](C(N)=O)c1ccccc1 (Bz-Arg-Lys-[dPhg]-NH2)
Response: 11

* * *

Biological target: Genome polyprotein (dengue virus type 2)
Sequence (P29990 1346-1475 limits assumed): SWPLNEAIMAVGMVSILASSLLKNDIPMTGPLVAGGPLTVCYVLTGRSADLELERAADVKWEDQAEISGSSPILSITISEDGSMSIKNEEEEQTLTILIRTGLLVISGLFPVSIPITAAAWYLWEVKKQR
Sequence (P29990 1476-2093 limits assumed): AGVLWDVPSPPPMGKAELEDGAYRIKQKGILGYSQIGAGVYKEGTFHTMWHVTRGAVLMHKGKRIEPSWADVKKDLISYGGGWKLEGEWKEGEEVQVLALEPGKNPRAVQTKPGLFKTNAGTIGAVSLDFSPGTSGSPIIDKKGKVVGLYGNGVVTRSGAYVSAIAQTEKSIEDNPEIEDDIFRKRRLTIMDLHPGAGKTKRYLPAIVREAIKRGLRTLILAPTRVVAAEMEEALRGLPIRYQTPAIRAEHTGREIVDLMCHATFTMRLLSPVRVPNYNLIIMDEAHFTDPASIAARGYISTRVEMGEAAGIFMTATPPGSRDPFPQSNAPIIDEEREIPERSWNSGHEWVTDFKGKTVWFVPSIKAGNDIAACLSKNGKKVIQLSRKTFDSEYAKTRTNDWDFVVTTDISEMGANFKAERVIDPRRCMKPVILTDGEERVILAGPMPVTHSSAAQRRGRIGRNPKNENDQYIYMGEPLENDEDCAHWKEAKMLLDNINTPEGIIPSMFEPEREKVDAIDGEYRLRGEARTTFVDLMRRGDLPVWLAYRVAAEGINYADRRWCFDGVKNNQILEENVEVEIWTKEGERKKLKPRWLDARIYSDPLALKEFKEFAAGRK
Where a SMILES comes first, the peptide text is derived from it. [ ]: non-standard residue; d: D form. The star is where a group is joined. dPhg = N[C@@H](C(=O)O)c1ccccc1; Bz = O=C(c1ccccc1)*
IC50: recorded values
Form entry: value (µM) — number only.

Known IC50 results, listed for orientation:
N=C(N)NCCC[C@H](NC(=O)c1ccccc1)C(=O)N[C@@H](CCCCN)C(=O)N[C@@H](C(N)=O)c1ccc(OCc2ccccc2)cc1
0.4
N=C(N)NCCC[C@H](NC(=O)c1ccccc1)C(=O)N[C@@H](CCCCN)C(=O)N[C@@H](C(N)=O)c1ccccc1 (Bz-Arg-Lys-[dPhg]-NH2)
3.8

Okay, now this molecule:
Prompt: Query (molecule): `C[C@@](NC(=O)[C@H](CCCCN)NC(=O)[C@H](CCCNC(=N)N)NC(=O)c1ccccc1)(C(N)=O)c1ccccc1` ; field requested: IC50
Response: 9.5
